System: PPARg:RXRa 270nM:90nM, anti-RXR (NR concentration 270 nM, RXRa partner concentration 90 nM)
Experiment: PBM binding z-score (relative to random genomic background probes); higher = stronger binding; sequences stand for … in GC…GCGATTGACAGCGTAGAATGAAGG
If the reported PBM binding z-score equals or exceeds 3, assign True. If not, assign False.

CAAACTAGGTCAAGAGGTCGAAGTCCGCTTCCCG = True
TAATATAGGTAAACAGGTGAAAGTCCGTAAGTTA = True
ACTCGGAGTACAAAGGTCAGAGCTACGCCAGTGA = True

Inquiry: Is PBM binding z-score for "TCAAGTAGGTTAGTCGGGGCATTCAGCCAACATA" at or above 3?
Reply text: False

Inquiry: Decide: is the reported value of PBM binding z-score for "CCTCCTGGGCCATTCAGAGGTCATTGATCATATG" equal to or greater than 3?
Reply text: False
